The measured values listed here are drawn from ChEMBL document CHEMBL1133016.

Species: Cavia porcellus
Experiment: Evaluated for agonist activity as percent inhibition in electrically evoked twitch height in Guinea pig ileum (GPI) at 1 uM concentration of compound
Type: functional
Parameter inhibition at 1 µM: see the listing below.
A number alone suffices; assume %.

>  <smiles-representation>
C[C@H](c1c[nH]c2ccccc12)[C@H](N)C(=O)N[C@H]1CSSC(C)(C)[C@@H](C(=O)N[C@H](C(N)=O)[C@@H](C)O)NC(=O)[C@H]([C@@H](C)O)NC(=O)[C@H](CCCN=C(N)N)NC(=O)[C@@H](Cc2c[nH]c3ccccc23)NC(=O)[C@H](Cc2ccc(O)cc2)NC1=O

>  <inhibition at 1 µM [%]>
0

$$$$
>  <smiles-representation>
C[C@@H](O)[C@H](NC(=O)[C@H]1NC(=O)[C@H]([C@@H](C)O)NC(=O)[C@H](CCCN=C(N)N)NC(=O)[C@@H](Cc2c[nH]c3ccccc23)NC(=O)[C@H](Cc2ccc(O)cc2)NC(=O)[C@@H](NC(=O)[C@H](N)Cc2c[nH]c3ccccc23)CSSC1(C)C)C(N)=O

>  <inhibition at 1 µM [%]>
43

$$$$
>  <smiles-representation>
C[C@H](c1c[nH]c2ccccc12)[C@@H](N)C(=O)N[C@H]1CSSC(C)(C)[C@@H](C(=O)N[C@H](C(N)=O)[C@@H](C)O)NC(=O)[C@H]([C@@H](C)O)NC(=O)[C@H](CCCN=C(N)N)NC(=O)[C@@H](Cc2c[nH]c3ccccc23)NC(=O)[C@H](Cc2ccc(O)cc2)NC1=O

>  <inhibition at 1 µM [%]>
0

$$$$

Next compound, inhibition at 1 µM to be filled in.
Write down inhibition at 1 µM measured for item C[C@@H](O)[C@H](NC(=O)[C@H]1NC(=O)[C@H]([C@@H](C)O)NC(=O)[C@H](CCCN=C(N)N)NC(=O)[C@@H](Cc2c[nH]c3ccccc23)NC(=O)[C@H](Cc2ccc(O)cc2)NC(=O)[C@@H](NC(=O)[C@H](N)[C@@H](C)c2c[nH]c3ccccc23)CSSC1(C)C)C(N)=O
0
